# System: α1A‐AR expressing COS‐7 cells
# measurementNotes: Phenylephrine-induced CRE reporter assay
# Format: cell-based
# testConditions: COS-7; 200 nmol/L phenylephrine; mean ± SD from three experiments; read-out: EC50 for modulating the phenylephrine CRE response
propertyName: EC50 (µM)
Please give a number only; it is taken to be in µM.

The value of EC50 measured for the compound CN1C(=O)CN=C(c2ccccc2)c2cc(Cl)ccc21 [diazepam] turned out to be 6.5

* * *

# Tested on: α1A‐AR expressing COS‐7 cells
# Format: cell-based, human
# testConditions: 10 μmol/L forskolin, 50 μmol/L diazepam
propertyName: Effect of inhibitor on diazepam modulation of forskolin‐stimulated CRE response

CN1CCc2cc3c(cc2[C@H]1[C@@H]1OC(=O)c2c1ccc1c2OCO1)OCO3 [bicuculline] | had no effect
COC(=O)C1=C(C)NC(C)=C(C(=O)OC2CCCN(Cc3ccccc3)C2)C1c1cccc([N+](=O)[O-])c1 (stereo not drawn) [benidipine] | had no effect
